Data origin, for the record: ChEMBL document CHEMBL3301361

# assay-name: physchem
# measurement-parameters: pH 7.4 buffer
The following compounds are listed with their measured solubility thermodynamic values.
observed-property: solubility thermodynamic (µM)

>>> quantitative_readout("C[C@@H]1CN(C(=O)OC(C)(C)C)C[C@H](C)N1c1ncc(OCc2ccc(S(C)(=O)=O)cc2)cn1")
4.1
>>> quantitative_readout("Cc1ccc(CO)cc1N(C)c1ccnc(Nc2cc(N3CCCOCC3)cc(N3CCOCC3)c2)n1")
91.2
>>> quantitative_readout("COc1cc2ncnc(Nc3cc(NC(=O)c4ccccc4)c(Cl)cc3F)c2cc1OC")
1.9
>>> quantitative_readout("Cc1cccc(C)c1NC(=O)N1CCC(C(=O)c2ccc(F)cc2)CC1")
18.6
>>> quantitative_readout("O=C(NCc1ccccc1)c1cccn(Cc2ccccc2)c1=O")
26.3
>>> quantitative_readout("COc1cc(N2CCN(C(C)=O)CC2)ccc1Nc1ncc(C)c(-c2cnc3ccccn23)n1")
5
>>> quantitative_readout("Cc1ccccc1C(=O)Nc1ccccc1")
186
>>> quantitative_readout("COc1cc2ncnc(Nc3ccc(F)c(Cl)c3)c2cc1OCCN1CCN(C)CC1")
64.6
>>> quantitative_readout("COc1cc2c(Nc3cnc(NC(=O)c4ccccc4)nc3)ncnc2cc1OC[C@@H](O)CN1CCCCC1")
1510
>>> quantitative_readout("Cc1cc(C)cc(-c2[nH]c3ccc(C(C)(C)C(=O)N4C5CCC4CC5)cc3c2CCNCCCCc2ccncc2)c1")
35.5
>>> quantitative_readout("COc1ccc(C(=O)Nc2ccccc2)cc1")
18.2
>>> quantitative_readout("Cc1[nH]c2ccccc2c1CC#N")
1020
>>> quantitative_readout("CSc1ccc(OCc2ccccc2)c(C(=O)Nc2ccc(C(=O)O)cn2)c1")
200
>>> quantitative_readout("FC(F)(F)c1nnc2ccc(N3CCCC3)nn12")
417
>>> quantitative_readout("NC(=O)c1c(OCc2c(F)cc(Br)cc2F)nsc1NC(=O)NCCCCN1CCCC1")
77.6
>>> quantitative_readout("c1ccc(CSc2ncnc3[nH]cnc23)cc1")
95.5
>>> quantitative_readout("CCc1ccc(CCOc2ccc(CC3SC(=O)NC3=O)cc2)nc1 (stereo unspecified)")
2
>>> quantitative_readout("Cc1cnc(Nc2ccc(OCC(O)CN(C)C)cc2)nc1Nc1ccccc1 (stereo unspecified)")
724
>>> quantitative_readout("Nc1ccc(OCc2ccccc2)cc1")
468
>>> quantitative_readout("N#Cc1ccccc1C[C@@H](C(=O)O)N1CCC(CN2CCC(Oc3ccc(Cl)c(Cl)c3)CC2)CC1")
288
>>> quantitative_readout("CN(C)C(=O)[C@H](Cc1ccccc1)NC(=O)c1cc2sccc2[nH]1")
17
>>> quantitative_readout("COc1ccc2c(c1)Sc1ccccc1N2")
2.4
>>> quantitative_readout("CNc1nc2ccc(NC(C)=O)cc2s1")
347
>>> quantitative_readout("Cn1nc(C(C)(C)C)cc1C(=O)N[C@@H](Cc1cccc(Cl)c1)C(=O)NCC#N")
93.3
>>> quantitative_readout("COc1cc(C(=O)N2CCOCC2)ccc1Nc1ncc(Cl)c(-c2cnc3ccccn23)n1")
1.6
>>> quantitative_readout("CS(=O)(=O)Cc1cc(N2CCOCC2)nc(-c2cnc3[nH]ccc3c2)n1")
47.9
>>> quantitative_readout("N#CC1(NC(=O)[C@@H]2CCCC[C@H]2C(=O)N2CCc3oc4ccccc4c3C2)CC1")
575
>>> quantitative_readout("Cc1ccc(-c2cc(C(F)(F)F)nn2-c2ccc(S(N)(=O)=O)cc2)cc1")
2.2
>>> quantitative_readout("O=C(Nc1ccc(Cl)c(Cl)c1)N1CCN(C[C@@H]2CCCN(C3CC3)C2)CC1")
288
>>> quantitative_readout("N#CC1(NC(=O)[C@@H]2CCCC[C@H]2C(=O)N2CCc3[nH]c4ccc(F)cc4c3C2)CC1")
525
>>> quantitative_readout("O=C(NCc1ccncc1)c1ccc(Oc2ccc(C#C[C@@]3(O)CN4CCC3CC4)cc2)cc1")
107
